system: VIP receptors in rat lung membrane
No end group written: not given here.
Attribute measured: RELATIVE IC50
Numbers only.

>  <Substance>
HSDAVYSDSFSRYRRSVALRRFVSNVVT-NH2 [Analog I]

>  <RELATIVE IC50>
140

$$$$
>  <Substance>
HSDAVYSDSFSRYRSRVALSRFVRNVVT-NH2 [Analog II]

>  <RELATIVE IC50>
550

$$$$
>  <Substance>
H-HSDAVFSDSYSRFRRSMAVRRYLSNVLT-NH2 [Analog V]

>  <RELATIVE IC50>
4.2

$$$$

Now turn to the next substance.
Incoming: Returns the measured RELATIVE IC50 for the input substance. Input: HSDAVFTDNYSRFRKQMAVRRFVNSVLT-NH2 [Analog IX]
Outgoing: 175

* * *

assay: Stability against proteolytic degradation in crude rat-lung homogenate; details: 10^-5 M peptide in crude rat lung homogenate, 37° C., intact peptide by HPLC
No end group written: not given here.
Exercise: state measured HALF-LIFE for each of the substances provided.
# output: numeric value plus its unit

>  <Substance>
H-HSDAVFSDSYSRFRRSMAVRRYLSNVLT-NH2 [Analog V]

>  <HALF-LIFE>
2.5 min

$$$$
>  <Substance>
HSDAVYTDNFSRYRKQVALKKFVNSVVT-NH2 [Analog IV]

>  <HALF-LIFE>
5 min

$$$$
>  <Substance>
HSDAVYSDSFSRYRSRVALSRFVRNVVT-NH2 [Analog II]

>  <HALF-LIFE>
7.5 min

$$$$
>  <Substance>
HSDAVYSDSFSRYRRSVALRRFVSNVVT-NH2 [Analog I]

>  <HALF-LIFE>
4 min

$$$$

Incoming: Returns the measured HALF-LIFE for the input substance. Input: HSDAVYSDSFRSYRSRVALSRFVRNVVT-NH2 [Analog III]
Outgoing: 4 min

* * *

test system: VIP receptors in rat lung membrane
No end group written: not given here.
Could you mark each record T if its RELATIVE IC50 falls strictly under 1000, and F if it equals or exceeds it?

>  <Substance>
HSDAVFTDNYSRYRRQMAVKKYLNSVLT-NH2 [Analog VII]

>  <Assigned category>
T

$$$$

Incoming: Please determine if HSDALFTDTYTRLRKQMAMKKYLNSVLN-NH2 [Guinea Pig VIP, reference compound] is below 1000 in terms of RELATIVE IC50.
Outgoing: T

Incoming: Please determine if HSDAVYSDSFRSYRSRVALSRFVRNVVT-NH2 [Analog III] is below 1000 in terms of RELATIVE IC50.
Outgoing: F

Incoming: Please determine if HSDAVYTDNFSRYRKQVALKKFVNSVVT-NH2 [Analog IV] is below 1000 in terms of RELATIVE IC50.
Outgoing: F

Incoming: Please determine if HSDAVFTDNYSRFRKQMAVKKYLNSVLT-NH2 [Chicken VIP, reference compound] is below 1000 in terms of RELATIVE IC50.
Outgoing: T
